# Study Target: T1, 4H794-AA
# T1 chain: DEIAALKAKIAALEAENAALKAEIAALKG
# Method Notes: two-hybrid library CCmax;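 further: natural log of median RNA to DNA barcode read ratio; higher means stronger binding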
# Protocol Conditions: mean of both orientations
What interaction score was measured for each of the following?
One number for each entry.

Answered cases to consult:
What interaction score value was documented for this binder, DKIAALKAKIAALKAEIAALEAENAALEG [4H2883-AA] ?
-1.54

Name the recorded interaction score for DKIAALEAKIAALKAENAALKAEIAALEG [4H2393-AA] .
1.33

GET /values?readout=interaction score&item= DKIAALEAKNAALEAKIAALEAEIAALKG [4H2466-AA]
-1.43

Param item = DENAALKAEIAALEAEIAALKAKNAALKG [4H1552-AA] ; retrieve measured interaction score.
-1.55

Param item = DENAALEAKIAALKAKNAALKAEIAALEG [4H1401-AA] ; retrieve measured interaction score.
-1.02

Fill in interaction score for each of the 4 binders listed.
1. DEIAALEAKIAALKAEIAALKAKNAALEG [4H335-AA]
2. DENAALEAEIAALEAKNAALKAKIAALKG [4H1086-AA]
3. DEIAALEAKNAALKAEIAALEAKIAALKG [4H454-AA]
4. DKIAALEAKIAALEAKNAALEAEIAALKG [4H2354-AA]

[-1.3, -0.327, -0.535, -1.09]

Respectfully, I request interaction score for each entry included below.
1. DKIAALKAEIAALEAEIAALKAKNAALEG [4H2575-AA]
2. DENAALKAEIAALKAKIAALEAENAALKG [4H1636-AA]
3. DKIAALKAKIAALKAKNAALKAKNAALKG [4H2944-AA]
4. DEIAALKAENAALEAKIAALEAKIAALKG [4H678-AA]

1: -1.27; 2: -1.68; 3: -1.89; 4: -1.91

Query (binder): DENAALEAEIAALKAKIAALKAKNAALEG [4H1135-AA] ; field requested: interaction score
-1.61
